Log K, Ferriprotoporphyrin IX: measured values
Please state the value as a number alone, without comment.

Solved entries (count: 2):
>>> reported_value("NCCNc1ccnc2cc(Cl)ccc12")
4.93
>>> reported_value("CC(=O)NCCNc1ccnc2ccccc12")
4.28

Then this molecule:
Considering `CCN(CC)CCNc1ccnc2ccccc12` , its Log K with Ferriprotoporphyrin IX was recorded as 4.75

* * *

- System: Ferriprotoporphyrin IX
As shown below, each of these compounds has a reported Log K value.
Could you respond with only the numeric value?

>>> reported_value("CNc1ccc2ccccc2n1")
4.26
>>> reported_value("OCCNc1ccnc2ccccc12")
4.18
>>> reported_value("Nc1ccnc2ccccc12 [QUINOLIN-4-AMINE]")
4.49
>>> reported_value("CNc1ccnc2cc(Cl)ccc12")
4.48
>>> reported_value("CNc1ccnc2ccccc12")
4.38
>>> reported_value("OCCNc1ccnc2cc(Cl)ccc12")
4.66

Form: item `NCCNc1ccc2ccccc2n1` ; test system Ferriprotoporphyrin IX; Log K: 4.34

The value of Log K recorded for `CN(C)CCNc1ccnc2cc(Cl)ccc12` when tested on Ferriprotoporphyrin IX reads 4.96

Reported Ferriprotoporphyrin IX Log K for item `CCN(CC)CCNc1ccnc2cc(Cl)ccc12` was 5.81

Log K of `NCCNc1ccnc2ccccc12` , assay on Ferriprotoporphyrin IX, is 4.59

The measured Log K that `Nc1ccnc2cc(Cl)ccc12` showed for Ferriprotoporphyrin IX is 4.43
